test system: UACC-62 melanoma; experiment: NCI-60 one-dose screen, 48 h (100 = growth as untreated, 0 = no growth, -100 = all killed); details: 10 µM unless noted
The panel holds about 83,000 compounds, 20% with a hit somewhere; the sample as a whole holds those more often. Calls of active or inactive are those of the source. Rule for the calls: active = growth percent below 10; inactive = the rest.
Parameter: growth. Scope: all listed entries.

Cc1cccc(NC(=O)c2sc3nc4c(cc3c2N)CCC4)c1C	28.7% (inactive)
COc1ccc(Cn2cc(COc3cc(/C=C/C(=O)c4cc(OC)c(OC)c(OC)c4)ccc3OC)nn2)cc1	70.1% (inactive)

Look at this compound and give its reported growth. COc1ccc(C2=NN(c3ccc(S(N)(=O)=O)cc3)C(c3cn(-c4ccccc4)nc3-c3ccc(Cl)cc3)C2)cc1 (stereo not given)
88.5% (inactive)

Look at this compound and give its reported growth. "c1ccn2nnnc2c1"
105% (inactive)

Look at this compound and give its reported growth. "COc1ccc(/C=N/NC(=O)Cn2c(Cc3cccc4ccccc34)nc3ccccc32)cc1"
87.7% (inactive)

====

test system: NCI-H460 lung; assay: NCI-60 one-dose screen, 48 h; conditions: 10 µM unless noted
The panel holds about 83,000 compounds, 20% with a hit somewhere; the sample as a whole holds those more often. Calls of active or inactive are those of the source. The calls were made as follows: active = growth percent below 10; inactive = the rest.
Please reply with one of these outcomes: active, inactive

A selection of reference data follows.
Cc1ccc2nc(-c3c(N)n[nH]c3CCCO)[nH]c(=O)c2c1	inactive
CN(C)C/C=C/C(=O)Nc1cc2c(Nc3cccc(Cl)c3F)ncnc2cc1OCCOC(F)F	inactive
NC(=O)NC(=O)/C=C/C(=O)OCCCl	inactive

# fetch the recorded call for Cc1ccc2c(c1)C(C)Cc1c(ncnc1-n1cnc3ccccc31)N2C (configuration not stated) here
active

# fetch the recorded call for "COc1ccc(OC)c(-c2ccc(-c3ccccc3N)c3[nH]c4ccccc4c23)c1" here
inactive

# fetch the recorded call for O=C(c1ccccc1)C(Cl)C(Cl)c1ccccc1 (configuration not stated) here
inactive

# fetch the recorded call for "COc1cc(OC)c(C(=O)/C=C/c2cccc(C(F)(F)F)c2)c(OC)c1" here
active

# fetch the recorded call for "COc1ccc(/C=C\c2cc(OC)c(OC)c(OC)c2)c(NS(=O)(=O)c2ccc(C(C)(C)C)cc2)c1O" here
active

# fetch the recorded call for "O=C(N/N=C/c1c(Cl)cccc1Cl)c1ccccc1Nc1ccnc(C(F)(F)F)c1" here
inactive

# fetch the recorded call for CC(=O)OCC1OC(OCC2OC(OC(C)=O)C(OC(C)=O)C(OC(C)=O)C2OC(C)=O)C(OC(C)=O)C(OC(C)=O)C1OC(C)=O (configuration not stated) here
inactive

# fetch the recorded call for "O=C(Nc1ccc(I)cc1)c1cccc([N+](=O)[O-])c1O" here
inactive

# fetch the recorded call for CCC(c1ccc(OC)cc1)C(CC)c1ccc(O)c(CN2CCCC2)c1 (configuration not stated) here
active

# fetch the recorded call for "COc1cc(NS(C)(=O)=O)ccc1Nc1c2ccc([N+](=O)[O-])cc2nc2c(C)cccc12" here
active

# fetch the recorded call for "CCOC(=O)c1cc(/C(=N\O)c2cc(OC)c(OC)c(OC)c2)n2c(C)cccc12" here
inactive

# fetch the recorded call for "CCN(Cc1ccccc1)c1ccc(SC#N)cc1" here
inactive

# fetch the recorded call for "Clc1nc(Cl)c2ncn(C/C=C/Cn3cnc4c(Cl)nc(Cl)nc43)c2n1" here
inactive

====

tested on: M14 melanoma; assay: NCI-60 one-dose screen, 48 h; conditions: 10 µM unless noted
Compounds without any hit were thinned out: in the full panel of roughly 83,000, 20% have a hit. Activity calls are given as the source filed them. Rule for the calls: active = growth percent below 10; inactive = the rest.
Please reply with one of these outcomes: yes (1) for active, no (0) for inactive

COc1cccc(-c2nc3sccn3c2-c2ccnc(NCCCNS(=O)(=O)c3ccccc3)n2)c1	no (0)
O=C1N=C(c2c(-c3[nH]c(=O)c4ccc(Br)cc4c3O)c(O)c3ccccc3c2O)C(=O)c2cc(Br)ccc21	yes (1)
CC(=O)OCC1OC(OCC2OC(OC(C)=O)C(OC(C)=O)C(OC(C)=O)C2OC(C)=O)C(OC(C)=O)C(OC(C)=O)C1OC(C)=O (centres undefined)	no (0)
CCOC(=O)c1ccccc1NC(c1ccccc1)c1ccc2cccnc2c1O (centres undefined)	no (0)

# fetch the recorded call for "COC(=O)c1cc(-c2cccs2)c(C#N)c(N)c1C#N" here
no (0)

# fetch the recorded call for "CC(=O)n1cc([C@H]2CC[C@H](c3cn(C(C)=O)c4ccccc34)c3c2[nH]c2ccccc32)c2ccccc21" here
no (0)

# fetch the recorded call for "Oc1ccc(Cl)cc1-c1cc(-c2ccc(Cl)cc2)n[nH]1" here
no (0)

# fetch the recorded call for "COc1cc(OC)c(C(=O)/C=C/c2cccc(C#N)c2)c(OC)c1" here
yes (1)

# fetch the recorded call for "CC(C)C[C@H](NC(=O)Cn1ccc(NCc2ccccc2)cc1=O)B(O)O" here
yes (1)

====

tested on: HCC-2998 colon; assay: NCI-60 one-dose screen, 48 h; settings: 10 µM unless noted
This is part of a sample that, as a whole, favours compounds with a hit. Of some 83,000 tested, about 20% had one in any assay. Activity calls are given as the source filed them. Rule for the calls: active = growth percent below 10; inactive = the rest.
Please reply with one of these outcomes: Y = active, N = inactive

A selection of reference data follows.
O=C(Nc1ccc(I)cc1)c1cccc([N+](=O)[O-])c1O	N
NS(=O)(=O)c1ccc(NCC(=O)Nc2ccc(-c3nc4ccccc4s3)cc2)cc1	N
O=S(=O)(c1ccccc1)n1ccc(-c2ccc3c(c2)CCO3)n1	N
Cc1ccc(Oc2nc3ccccc3cc2-c2nnc(Cn3c(COc4ccccc4)nc4ccccc43)o2)cc1	N
Cc1nc(Nc2cccnc2)sc1C(=O)/C=C/c1ccc(Cl)cc1	N

# fetch the recorded call for "COc1ccc(C(=O)/C=C/c2ccc(/C=C/c3cc(OC)c(OC)c(OC)c3)cc2)cc1" here
N

# fetch the recorded call for "CCC#CC[C@H]1C/C=C2/C(=O)C=C[C@@H]2C/C=C\CCCC(=O)O1" here
Y

# fetch the recorded call for "COc1ccc(/C=C2\Oc3cc(OCCN4CCCC4)ccc3C2=O)c(OC)c1" here
N

# fetch the recorded call for "COc1ccc(-c2cn[nH]c2-c2cc(OC)c3c(c2)OCCO3)cc1" here
N

# fetch the recorded call for CN(C)c1ccc(C2CC(c3ccccc3)=NN2/C=C2\SC(=O)NC2=O)cc1 (stereo unspecified) here
N

# fetch the recorded call for COc1ccc(C2CC(=O)Nc3c2c(C)nn3-c2nc3ccccc3[nH]2)cc1OC (stereo unspecified) here
N

# fetch the recorded call for "COc1cc(-c2nc(-c3nc4ccccc4[nH]3)cc3c2[nH]c2ccccc23)cc(OC)c1OC" here
N

# fetch the recorded call for "O=C1CCCCN1CCCCC#Cc1ccccc1C#Cc1ccccn1" here
N

# fetch the recorded call for CCCCCCCCCN1C(=O)/C(=c2\sc3n(c2=O)C2C(NN=3)N(CC)C(=O)N2CC)c2ccccc21 (stereo unspecified) here
N

# fetch the recorded call for "COc1cc2nc(SCc3cc(OC)c(OC)c(OC)c3)n(Cc3ccccc3)c(=O)c2cc1OC" here
N

# fetch the recorded call for "COc1cc(Cn2c(SCC(=O)Nc3cc(OC)c(OC)c(OC)c3)nc3ccccc3c2=O)cc(OC)c1OC" here
N

# fetch the recorded call for "COc1cc(Cn2c(-c3nonc3N)nc3ccccc32)ccc1C" here
N

# fetch the recorded call for "COc1ccc(NC(=O)c2cc3ccccc3nc2Nc2cc(OC)c(OC)c(OC)c2)cc1" here
N

# fetch the recorded call for "Cn1c(C(N)=O)cc2c1-c1nc(NC3CCCCC3)ncc1CCC2" here
N

# fetch the recorded call for "Cc1cc(C)c(NC(=O)c2sc3nc4c(cc3c2N)CN(Cc2ccccc2)CC4)c(C)c1" here
N

# fetch the recorded call for "CC(=O)Oc1cccc(OC(C)=O)c1OC(C)=O" here
N

# fetch the recorded call for "CCN(C(=O)c1cc2ccccc2[nH]1)[C@H]1CCC[C@@H](NCc2ccc(OC)cc2)C1" here
N

# fetch the recorded call for "Cc1nc2scc(-c3ccccc3)n2c(=O)c1CCO" here
N

# fetch the recorded call for "CN(C)c1ccc(-c2ccc(-c3ccc(C(=N)N)cn3)o2)cc1" here
Y

# fetch the recorded call for "O=C1CCC/C=C\C[C@H]2C=CC(=O)/C2=C/C[C@H](C/C=C\CC(F)(F)F)O1" here
Y

====

Test system: BT-549 breast
Test: NCI-60 one-dose screen, 48 h
Conditions: 10 µM unless noted
Procedure: Growth inhibition of the BT-549 human tumor cell line is measured as a screen for anti-cancer activity. Cells are grown in 96 well plates and exposed to the test compound for 48 hours. Compounds are tested at a single concentration, which is 10^-5 M for most compounds. The reported endpoint is percent growth (GI% or GIPRCNT), where numbers from 0 - 100% represent growth inhibition, and numbers from -100% - 0 represent cell death. For example, a value of 40 represents 60% growth inhibition. […]
The panel holds about 83,000 compounds, 20% with a hit somewhere; the sample as a whole holds those more often. Active and inactive are the calls of the source. How the source made its calls: active means growth percent below 10; inactive means the rest.
Please reply with one of these outcomes: active, inactive

COc1cc(NC(=O)CSc2nc3ccc(C)cc3c(=O)n2-c2ccccc2)cc(OC)c1OC	inactive
O=S(=O)(NCCNc1cc(-c2cn(-c3ccccc3)nc2-c2ccccc2)ccn1)c1ccc(F)cc1	inactive
CCC(c1ccc(OC)cc1)C(CC)c1ccc(O)c(CN2CCCC2)c1 (centres undefined)	active
CCC#CC[C@H]1C/C=C2/C(=O)C=C[C@@H]2C/C=C\CCCC(=O)O1	active
Cc1ccc2nc(-c3c(N)n[nH]c3CCCO)[nH]c(=O)c2c1	inactive

Consider now this further compound.
# fetch the recorded call for COC12CC(=O)C(C(C)=O)=C(O)C1(C)c1c(O)c(C)c(O)c(C(C)=O)c1O2 (centres undefined) here
inactive
